target: Prostaglandin E2 receptor EP4 subtype (Homo sapiens, UniProt P35408); assay: Radioligand Binding Assay: HEK-293 cells stably expressing the human or feline FP receptor, or EP1, EP2, or EP4 receptors were washed with TME buffer, scraped from the bottom of the flasks, and homogenized for 30 sec using a Brinkman PT 10/35 polytron. TME buffer was added to achieve a final 40 ml volume in the centrifuge tubes (the composition of TME is 100 mM TRIS base, 20 mM MgCl2, 2M EDTA; 10N HCl is added to achieve a pH of 7.4).The cell homogenate was centrifuged at 19000 r.p.m. for 20 min at 4° C. using a Beckman Ti-60 rotor. The resultant pellet was resuspended in TME buffer to give a final 1 mg/ml protein concentration, as determined by Biorad assay. Radioligand binding competition assays vs. [3H-]17-phenyl PGF2a (5 nM) were performed in a 100 μl volume for 60 min. Binding reactions were started by adding plasma membrane fraction. The reaction was terminated by the addition of 4 ml ice-cold TRIS-HCl buffer and rapid filtration through glass fiber GF/B filters using a Brandel cell harvester. The filters were washed 3 times with ice-cold buffer and oven dried for one hour.[3H] PGE2 (specific activity 180 Ci mmol) was used as the radioligand for EP receptors. [3H] 17-phenyl PGF2a was employed for FP receptor binding studies. Binding studies employing EP1, EP2, EP4 and FP receptors were performed in duplicate in at least three separate experiments. A 200 μl assay volume was used. Incubations were for 60 min at 25° C. and were terminated by the addition of 4 ml of ice-cold 50 mM TRIS-HCl, followed by rapid filtration through Whatman GF/B filters and three additional 4 ml washes in a cell harvester (Brandel).
Sequence (P35408 whole entry): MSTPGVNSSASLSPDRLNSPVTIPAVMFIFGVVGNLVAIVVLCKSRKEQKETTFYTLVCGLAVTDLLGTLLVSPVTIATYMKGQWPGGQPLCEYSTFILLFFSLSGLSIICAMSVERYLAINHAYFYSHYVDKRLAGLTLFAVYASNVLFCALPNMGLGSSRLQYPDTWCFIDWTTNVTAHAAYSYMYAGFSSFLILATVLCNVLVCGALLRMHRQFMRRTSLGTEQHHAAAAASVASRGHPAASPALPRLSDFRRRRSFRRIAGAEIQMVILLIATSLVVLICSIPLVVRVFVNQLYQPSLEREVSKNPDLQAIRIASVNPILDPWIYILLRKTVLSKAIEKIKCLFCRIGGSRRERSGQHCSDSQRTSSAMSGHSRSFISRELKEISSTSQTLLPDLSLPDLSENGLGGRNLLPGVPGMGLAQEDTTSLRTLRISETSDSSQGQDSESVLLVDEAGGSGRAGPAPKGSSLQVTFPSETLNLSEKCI
measurement_type: Ki (nM)
Return type: number; implicit unit nM.

[in] Specify measured Ki for COc1cc(CO)cc(CN2CCc3cccc(CCc4ccc(C(=O)O)s4)c32)c1 .
[out] 154
